- STUDY_SYSTEM: DksA (Salmonella typhimurium, UniProt P0A1G5)
- Sequence (P0A1G5 whole entry): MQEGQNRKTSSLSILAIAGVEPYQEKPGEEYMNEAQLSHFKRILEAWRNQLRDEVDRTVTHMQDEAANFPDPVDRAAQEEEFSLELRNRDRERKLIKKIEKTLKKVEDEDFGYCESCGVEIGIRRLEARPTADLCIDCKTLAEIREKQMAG
- EXPERIMENTAL_PROTOCOL: DksA-dependent livJ in vitro transcription
- Assay type: biochemical
- CONDITION_DETAILS: 0.1 μM; livJ promoter
METRIC: In vitro transcription assay result, 0.1 μM

Solved cases below.
{"columns": ["ITEM_SMILES", "DATA_VALUE"],
 "data": [
  ["COc1ccc(CNC(=O)c2nc[nH]n2)cc1OC", "no change"],
  ["COc1ccc(NC(=O)c2nc[nH]n2)cc1OC", "no change"],
  ["COc1ccc([C@@H](C)NC(=O)c2nc[nH]n2)cc1", "no induction"],
  ["O=C(NCc1ccc(OC(F)(F)F)cc1)c1nc[nH]n1", "no induction"],
  ["COc1cccc(CNC(=O)c2nc[nH]n2)c1OC", "no induction"]
]}

Now, please, on to the next compound.
Record O=C(NCCc1ccccc1)c1nc[nH]n1 , field In vitro transcription assay result, 0.1 μM: no induction

* * *

- STUDY_SYSTEM: DksA (Salmonella typhimurium)
- EXPERIMENTAL_PROTOCOL: DksA-dependent livJ in vitro transcription
- Assay type: biochemical
- CONDITION_DETAILS: concentration showing activity; livJ promoter
METRIC: IVT (µM)
Kindly answer with a numeric value in µM, unit omitted.

{"columns": ["MOLECULE", "METRIC", "DATA_VALUE"],
 "data": [
  ["COc1ccc(NC(=O)c2nc[nH]n2)cc1OC [Compound 1]", "IVT", 1],
  ["COc1ccc([C@@H](C)NC(=O)c2nc[nH]n2)cc1 [Compound 22]", "IVT", 0.1],
  ["O=C(NCCc1ccccc1)c1nc[nH]n1 [Compound 20]", "IVT", 0.1],
  ["COc1ccc(CNC(=O)c2nc[nH]n2)cc1C(F)(F)F [Compound 10]", "IVT", 1]
]}

Consider the record given below.
response.value for C[C@H](NC(=O)c1nc[nH]n1)c1ccccc1 [Compound 18] (field: IVT) = 0.1

* * *

- STUDY_SYSTEM: DksA (Salmonella typhimurium, UniProt P0A1G5)
- EXPERIMENTAL_PROTOCOL: DksA-dependent livJ in vitro transcription
- Assay type: biochemical
- CONDITION_DETAILS: 0.1 μM; livJ promoter
METRIC: In vitro transcription assay result, 0.1 μM

Solved entries:
{"columns": ["COMPOUND", "DATA_VALUE"],
 "data": [
  ["O=C(NCCCc1ccccc1)c1nc[nH]n1 [Compound 15]", "no induction"],
  ["COc1ccc(CNC(=O)c2nc[nH]n2)cc1 [Compound 4]", "no change"],
  ["O=C(NCCCCc1ccccc1)c1nc[nH]n1 [Compound 16]", "no induction"],
  ["C[C@@H](NC(=O)c1nc[nH]n1)c1ccccc1 [Compound 17]", "no induction"],
  ["O=C(Nc1cc(Cl)cc(Cl)c1)c1nc[nH]n1 [Compound 14]", "no induction"],
  ["O=C(NCc1ccc2c(c1)OCO2)c1nc[nH]n1 [Compound 6]", "no change"],
  ["CC(C)(C)c1ccc(NC(=O)c2nc[nH]n2)cc1 [Compound 13]", "no induction"],
  ["COc1cccc(CNC(=O)c2nc[nH]n2)c1 [Compound 7]", "no change"]
]}

Okay, next one:
Briefly, In vitro transcription assay result, 0.1 μM measured for O=C(NCc1cccc(OC(F)(F)F)c1)c1nc[nH]n1 [Compound 9] : no induction
